Molecular target: ATX (autotaxin) (Homo sapiens)
Construct: purchased Cayman 10803
Assay: Autotaxin Inhibition Screening Assay (choline release from LPC, LPC-CR)
Assay type: biochemical
Settings: 20 μM compound
ASSAY_ENDPOINT: inhibition at 20 µM

Field: example entries. Status: answers known.
{"MOLECULE": "O=C(CCCCCCC(=O)Nc1ccc2c(c1)CCC(Cc1cc(C(F)(F)F)cc(C(F)(F)F)c1)C2=O)NO (stereo not shown) [Compound 10]", "inhibition at 20 µM": "> 80%"}
{"MOLECULE": "Cc1[nH]c2ccccc2c1CCNC1CCCc2cc(/C=C/C(=O)Nc3ccc(F)cc3N)ccc21 (stereo not shown) [Compound 62]", "inhibition at 20 µM": "< 50%"}
{"MOLECULE": "O=C(/C=C/c1ccc(CNC(=O)COc2ccc3c(c2)CC/C(=C\\c2cc(C(F)(F)F)cc(C(F)(F)F)c2)C3=O)cc1)NO [Compound 75]", "inhibition at 20 µM": "50 to 80%"}

--- query ---
Req: Would you mind telling me what inhibition at 20 µM value was observed for Nc1cc(F)ccc1NC(=O)CCCCCNC(=O)/C=C/c1ccc2c(c1)CCC2NC(=O)c1ccc(F)cc1 (stereo not shown) [Compound 31] ?
Resp: < 50%

* * *

Biological target: HDAC2 (Homo sapiens, UniProt Q92769)
Construct: purchased Enzo Life Sciences
Sequence (Q92769 whole entry): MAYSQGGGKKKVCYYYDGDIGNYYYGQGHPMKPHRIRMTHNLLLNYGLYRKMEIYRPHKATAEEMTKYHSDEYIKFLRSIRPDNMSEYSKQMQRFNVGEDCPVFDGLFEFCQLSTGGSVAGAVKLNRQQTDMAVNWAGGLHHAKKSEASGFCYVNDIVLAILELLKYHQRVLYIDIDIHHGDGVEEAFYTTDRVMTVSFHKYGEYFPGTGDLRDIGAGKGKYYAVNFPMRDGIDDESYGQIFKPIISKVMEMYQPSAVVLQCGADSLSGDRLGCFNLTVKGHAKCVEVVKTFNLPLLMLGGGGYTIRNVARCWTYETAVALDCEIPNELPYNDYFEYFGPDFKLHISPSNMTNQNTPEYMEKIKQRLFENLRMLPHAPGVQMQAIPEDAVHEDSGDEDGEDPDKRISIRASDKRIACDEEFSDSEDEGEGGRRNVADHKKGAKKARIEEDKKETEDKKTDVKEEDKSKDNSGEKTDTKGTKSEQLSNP
Experiment: HDAC Inhibition Screening Assay (FLUOR DE LYS Fluorimetric Drug Discovery Kit), HDAC2
Type: biochemical
Conditions: 2 μM compound
ASSAY_ENDPOINT: inhibition at 2 µM

{"COMPOUND": "O=C(CCCCCCC(=O)Nc1ccc2c(c1)CCC(Cc1cc(C(F)(F)F)cc(C(F)(F)F)c1)C2=O)NO (stereo not drawn)", "inhibition at 2 µM": "< 50%"}
{"COMPOUND": "Nc1cc(F)ccc1NC(=O)/C=C/c1ccc2c(c1)CCCC2NC(=O)c1cc(C(F)(F)F)cc(C(F)(F)F)c1 (stereo not drawn)", "inhibition at 2 µM": "< 50%"}
{"COMPOUND": "CN(C(=O)OCc1cc(C(F)(F)F)cc(C(F)(F)F)c1)C1CCc2cc(/C=C/C(=O)NO)ccc21 (stereo not drawn)", "inhibition at 2 µM": "50 to 80%"}
{"COMPOUND": "O=C(/C=C/c1ccc(COc2ccc3c(c2)CCC(Cc2cc(C(F)(F)F)cc(C(F)(F)F)c2)C3=O)cc1)NO (stereo not drawn)", "inhibition at 2 µM": "< 50%"}

Req: Would you mind telling me what inhibition at 2 µM value was observed for Nc1cc(F)ccc1NC(=O)CCCCCCC(=O)NC1CCc2cc(/C=C/C(=O)Nc3cc(Cl)cc(Cl)c3)ccc21 (stereo not drawn) ?
Resp: < 50%

Req: Would you mind telling me what inhibition at 2 µM value was observed for O=C(CCCCCNC(=O)c1ccc2c(c1)CC/C(=C\c1cc(C(F)(F)F)cc(C(F)(F)F)c1)C2=O)NO ?
Resp: 50 to 80%

Req: Would you mind telling me what inhibition at 2 µM value was observed for CCN(CC)c1ccc(C(=O)NC2CCc3cc(/C=C/C(=O)Nc4ccc(F)cc4N)ccc32)cc1 (stereo not drawn) ?
Resp: < 50%

Req: Would you mind telling me what inhibition at 2 µM value was observed for O=C(/C=C/c1ccc2c(c1)CCC2NCCC(=O)Nc1cc(C(F)(F)F)cc(C(F)(F)F)c1)NO (stereo not drawn) ?
Resp: > 80%

Req: Would you mind telling me what inhibition at 2 µM value was observed for Nc1cc(F)ccc1NC(=O)CCCCCC(=O)Nc1ccc2c(c1)CC/C(=C\c1cc(C(F)(F)F)cc(C(F)(F)F)c1)C2=O ?
Resp: < 50%

* * *

Target: ATX (autotaxin) (Homo sapiens, UniProt Q13822)
Construct: purchased Cayman 10803
Test: Autotaxin Inhibition Screening Assay (choline release from LPC, LPC-CR)
Type: biochemical
Conditions: 50 μM compound
ASSAY_ENDPOINT: inhibition at 50 µM

Field: example entries. Status: answers known.
{"COMPOUND": "CCN(CC)c1ccc(C(=O)NC2CCc3cc(/C=C/C(=O)NCCCCCC(=O)Nc4ccc(F)cc4N)ccc32)cc1 (stereo not shown) [Compound 29]", "inhibition at 50 µM": "< 50%"}
{"COMPOUND": "O=C(CCCCNC(=O)c1ccc2c(c1)CC/C(=C\\c1cc(C(F)(F)F)cc(C(F)(F)F)c1)C2=O)NO [Compound 81]", "inhibition at 50 µM": "> 80%"}
{"COMPOUND": "Nc1cc(F)ccc1NC(=O)/C=C/c1ccc2c(c1)CC/C(=C\\c1cc(C(F)(F)F)cc(C(F)(F)F)c1)C2=O [Compound 6]", "inhibition at 50 µM": "50 to 80%"}
{"COMPOUND": "CN(C(=O)OCc1cc(C(F)(F)F)cc(C(F)(F)F)c1)C1CCc2ccc(/C=C/C(=O)NO)cc21 (stereo not shown) [Compound 65]", "inhibition at 50 µM": "> 80%"}
{"COMPOUND": "Nc1cc(F)ccc1NC(=O)CCCCCNC(=O)/C=C/c1ccc2c(c1)CCC2NC(=O)c1ccc(F)cc1 (stereo not shown) [Compound 31]", "inhibition at 50 µM": "< 50%"}
{"COMPOUND": "Cc1[nH]c2ccccc2c1CCNC1CCCc2cc(/C=C/C(=O)NO)ccc21 (stereo not shown) [Compound 63]", "inhibition at 50 µM": "< 50%"}

Req: Would you mind telling me what inhibition at 50 µM value was observed for Nc1cc(F)ccc1NC(=O)/C=C/c1ccc2c(c1)CCC2NC(=O)c1cc(C(F)(F)F)cc(C(F)(F)F)c1 (stereo not shown) [Compound 21] ?
Resp: < 50%

* * *

Target: HDAC1 (Homo sapiens)
Construct: purchased Enzo Life Sciences
Sequence (Q13547 whole entry): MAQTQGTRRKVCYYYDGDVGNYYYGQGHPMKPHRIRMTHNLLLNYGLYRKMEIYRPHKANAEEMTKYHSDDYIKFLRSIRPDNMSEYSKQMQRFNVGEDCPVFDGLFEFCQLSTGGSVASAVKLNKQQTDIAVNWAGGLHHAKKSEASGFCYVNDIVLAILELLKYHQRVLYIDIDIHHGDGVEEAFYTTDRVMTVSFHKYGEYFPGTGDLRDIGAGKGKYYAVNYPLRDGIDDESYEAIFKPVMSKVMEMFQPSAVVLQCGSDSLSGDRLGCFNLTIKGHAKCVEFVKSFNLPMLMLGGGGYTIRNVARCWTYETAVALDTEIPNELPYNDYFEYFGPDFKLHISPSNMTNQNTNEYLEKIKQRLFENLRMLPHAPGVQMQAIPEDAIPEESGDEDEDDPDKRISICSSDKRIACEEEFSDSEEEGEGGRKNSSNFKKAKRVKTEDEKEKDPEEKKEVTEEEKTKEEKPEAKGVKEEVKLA
Experiment: HDAC Inhibition Screening Assay (FLUOR DE LYS Fluorimetric Drug Discovery Kit), HDAC1
Type: biochemical
Details: 50 μM compound
ASSAY_ENDPOINT: inhibition at 50 µM

{"COMPOUND": "O=C(/C=C/c1ccc2c(c1)CCC2NC(=O)OCc1cc(C(F)(F)F)cc(C(F)(F)F)c1)NO (stereo not shown)", "READOUT_VALUE": "> 80%"}
{"COMPOUND": "Nc1cc(F)ccc1NC(=O)CCCCCCC(=O)Nc1ccc2c(c1)CCC(Cc1cc(C(F)(F)F)cc(C(F)(F)F)c1)C2=O (stereo not shown)", "READOUT_VALUE": "< 50%"}
{"COMPOUND": "Nc1cc(F)ccc1NC(=O)/C=C/c1ccc(COc2ccc3c(c2)CCCC3=O)cc1", "READOUT_VALUE": "< 50%"}

Req: Would you mind telling me what inhibition at 50 µM value was observed for O=C(/C=C/c1ccc2c(c1)CCCC2NC(=O)c1cc(C(F)(F)F)cc(C(F)(F)F)c1)NO (stereo not shown) ?
Resp: 50 to 80%

* * *

Measured inhibition at 50 µM by item
Target: HDAC3 (Homo sapiens)
Construct: purchased Enzo Life Sciences
Sequence (O15379 whole entry): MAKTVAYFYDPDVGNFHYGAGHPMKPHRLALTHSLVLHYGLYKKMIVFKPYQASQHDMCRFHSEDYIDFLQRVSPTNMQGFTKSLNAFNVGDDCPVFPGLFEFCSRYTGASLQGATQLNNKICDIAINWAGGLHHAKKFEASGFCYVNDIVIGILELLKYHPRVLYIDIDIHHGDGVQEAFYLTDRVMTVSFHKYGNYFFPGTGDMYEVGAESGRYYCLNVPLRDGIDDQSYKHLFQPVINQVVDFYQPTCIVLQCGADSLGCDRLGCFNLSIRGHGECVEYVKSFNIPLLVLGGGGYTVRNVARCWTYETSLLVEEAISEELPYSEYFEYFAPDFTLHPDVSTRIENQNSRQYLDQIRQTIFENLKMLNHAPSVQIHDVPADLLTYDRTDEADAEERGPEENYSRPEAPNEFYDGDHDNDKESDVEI
Sequence (O75376 395-489 partner limits assumed): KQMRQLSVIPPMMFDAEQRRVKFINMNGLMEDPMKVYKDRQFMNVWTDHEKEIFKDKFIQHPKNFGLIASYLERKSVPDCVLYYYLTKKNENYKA
Assay: HDAC Inhibition Screening Assay (FLUOR DE LYS Fluorimetric Drug Discovery Kit), HDAC3
Format: biochemical
Conditions: 50 μM compound

Field: example entries. Status: answers known.
{"MOLECULE": "Nc1cc(F)ccc1NC(=O)/C=C/c1ccc2c(c1)CCC2NCCC(=O)Nc1cc(C(F)(F)F)cc(C(F)(F)F)c1 (stereo not shown)", "ASSAY_ENDPOINT": "inhibition at 50 µM", "READOUT_VALUE": "50 to 80%"}
{"MOLECULE": "Nc1cc(F)ccc1NC(=O)CCCCCNC(=O)/C=C/c1ccc2c(c1)CCC2NC(=O)c1ccc(F)cc1 (stereo not shown)", "ASSAY_ENDPOINT": "inhibition at 50 µM", "READOUT_VALUE": "> 80%"}
{"MOLECULE": "CCN(CC)c1ccc(C(=O)NC2CCc3cc(/C=C/C(=O)NCCCCCC(=O)Nc4ccc(F)cc4N)ccc32)cc1 (stereo not shown)", "ASSAY_ENDPOINT": "inhibition at 50 µM", "READOUT_VALUE": "< 50%"}

Req: Would you mind telling me what inhibition at 50 µM value was observed for Nc1cc(F)ccc1NC(=O)/C=C/c1ccc2c(c1)CCC2NS(=O)(=O)c1cc(C(F)(F)F)cc(C(F)(F)F)c1 (stereo not shown) ?
Resp: < 50%

Req: Would you mind telling me what inhibition at 50 µM value was observed for COc1ccc(CCNC2CCc3cc(/C=C/C(=O)NO)ccc32)cc1 (stereo not shown) ?
Resp: > 80%

Req: Would you mind telling me what inhibition at 50 µM value was observed for O=C(NO)c1ccc(COc2ccc3c(c2)CC(Cc2cc(C(F)(F)F)cc(C(F)(F)F)c2)C3=O)cc1 (stereo not shown) ?
Resp: 50 to 80%

Req: Would you mind telling me what inhibition at 50 µM value was observed for O=C(/C=C/c1ccc2c(c1)CCC2NC(=O)OCc1cc(C(F)(F)F)cc(C(F)(F)F)c1)NO (stereo not shown) ?
Resp: > 80%
